# assayed-system: hLTBP3-proTGFβ1 as produced in the cell-based activation assay (human, UniProt P01137 30-390; Q9NS15 44-1303)
# Sequence (P01137 30-390 limits assumed, chain 1 of 2): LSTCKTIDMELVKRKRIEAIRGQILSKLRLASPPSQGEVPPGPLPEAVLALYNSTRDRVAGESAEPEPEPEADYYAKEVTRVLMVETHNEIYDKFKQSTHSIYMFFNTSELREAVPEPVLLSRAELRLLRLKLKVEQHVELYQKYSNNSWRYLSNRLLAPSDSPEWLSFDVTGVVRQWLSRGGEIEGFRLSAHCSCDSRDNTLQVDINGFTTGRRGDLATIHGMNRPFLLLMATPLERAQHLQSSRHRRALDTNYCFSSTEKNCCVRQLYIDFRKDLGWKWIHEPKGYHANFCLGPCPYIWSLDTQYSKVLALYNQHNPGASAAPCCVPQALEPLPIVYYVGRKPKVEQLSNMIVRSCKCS
# Sequence (Q9NS15 44-1303 limits assumed, chain 2 of 2): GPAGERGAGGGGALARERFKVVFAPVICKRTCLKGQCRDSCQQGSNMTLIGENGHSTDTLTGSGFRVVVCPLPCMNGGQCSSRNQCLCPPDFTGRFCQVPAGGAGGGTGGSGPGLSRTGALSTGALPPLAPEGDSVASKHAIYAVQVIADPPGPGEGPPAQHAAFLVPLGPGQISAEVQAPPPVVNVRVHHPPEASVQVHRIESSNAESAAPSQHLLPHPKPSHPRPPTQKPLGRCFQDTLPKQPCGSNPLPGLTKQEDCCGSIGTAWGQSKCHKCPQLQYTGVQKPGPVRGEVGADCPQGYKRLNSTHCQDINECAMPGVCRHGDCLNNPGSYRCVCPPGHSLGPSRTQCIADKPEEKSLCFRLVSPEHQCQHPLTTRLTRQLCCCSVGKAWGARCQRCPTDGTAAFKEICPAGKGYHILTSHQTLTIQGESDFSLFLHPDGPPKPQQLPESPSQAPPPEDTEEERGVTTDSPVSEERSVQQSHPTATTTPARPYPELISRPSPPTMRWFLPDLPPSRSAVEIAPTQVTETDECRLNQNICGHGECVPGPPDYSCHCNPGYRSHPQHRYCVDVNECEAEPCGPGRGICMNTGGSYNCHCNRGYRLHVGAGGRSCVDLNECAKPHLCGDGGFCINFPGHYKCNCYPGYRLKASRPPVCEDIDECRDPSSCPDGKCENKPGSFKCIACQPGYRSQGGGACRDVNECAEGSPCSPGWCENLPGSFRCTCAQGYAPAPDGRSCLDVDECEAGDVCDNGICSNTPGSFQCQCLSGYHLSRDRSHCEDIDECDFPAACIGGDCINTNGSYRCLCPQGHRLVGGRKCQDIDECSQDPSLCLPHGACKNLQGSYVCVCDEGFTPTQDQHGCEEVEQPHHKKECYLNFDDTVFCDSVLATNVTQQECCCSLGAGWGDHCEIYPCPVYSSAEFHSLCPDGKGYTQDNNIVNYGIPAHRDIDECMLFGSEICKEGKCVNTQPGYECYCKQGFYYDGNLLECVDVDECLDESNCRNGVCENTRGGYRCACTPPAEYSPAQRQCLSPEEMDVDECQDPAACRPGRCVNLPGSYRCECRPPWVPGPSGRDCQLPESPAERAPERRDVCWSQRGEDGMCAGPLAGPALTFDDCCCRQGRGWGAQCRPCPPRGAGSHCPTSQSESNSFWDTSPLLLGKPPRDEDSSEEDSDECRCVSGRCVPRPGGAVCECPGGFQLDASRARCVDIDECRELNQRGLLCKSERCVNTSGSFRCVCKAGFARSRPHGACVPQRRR
# measurement-description: cell-based or functional assay
measurement-type: IC50, reporter cell assay (nM)
Please state the figure in nM; there is no need to write the unit.

Exercise: I am curious: what IC50, reporter cell assay value has been reported for Ab25 (antibody, V domains shown) VH: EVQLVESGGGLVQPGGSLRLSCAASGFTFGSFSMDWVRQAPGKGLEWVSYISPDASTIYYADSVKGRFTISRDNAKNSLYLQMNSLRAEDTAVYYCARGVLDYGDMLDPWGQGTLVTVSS VL: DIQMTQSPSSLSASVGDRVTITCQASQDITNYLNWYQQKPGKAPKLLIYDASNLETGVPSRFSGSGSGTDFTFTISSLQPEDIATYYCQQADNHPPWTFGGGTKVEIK ?
Solution: 0.538

Exercise: I am curious: what IC50, reporter cell assay value has been reported for Ab29 (antibody, IgG4, V domains shown) VH: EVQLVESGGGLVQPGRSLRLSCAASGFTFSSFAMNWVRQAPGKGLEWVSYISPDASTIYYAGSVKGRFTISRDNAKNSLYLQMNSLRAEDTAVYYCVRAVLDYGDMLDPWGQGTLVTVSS VL: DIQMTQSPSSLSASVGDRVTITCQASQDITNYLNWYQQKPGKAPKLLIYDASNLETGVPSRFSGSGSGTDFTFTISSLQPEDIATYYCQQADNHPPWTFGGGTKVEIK ?
Solution: 0.803

Exercise: I am curious: what IC50, reporter cell assay value has been reported for Ab12 (antibody, IgG4, V domains shown) VH: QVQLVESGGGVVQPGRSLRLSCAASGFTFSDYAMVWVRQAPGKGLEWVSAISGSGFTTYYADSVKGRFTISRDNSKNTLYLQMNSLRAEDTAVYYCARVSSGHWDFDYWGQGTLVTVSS VL: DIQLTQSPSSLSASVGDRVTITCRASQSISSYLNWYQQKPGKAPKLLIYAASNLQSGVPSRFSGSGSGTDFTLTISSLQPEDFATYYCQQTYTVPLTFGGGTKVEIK ?
Solution: 1.55
